Consider the following compounds; for each one, report its Log P.
Conditions: pH 2.7
Marks after values point to notes of the source that are not given here.

Some solved cases for reference:
C=CCCCC(C=C)NC(=C(C#N)C(=O)OCC)c1cn(C)nc1C(F)F (racemic): 3.73^[a]
CCOC(=O)C(C#N)=C(NC(C)C1CC1)c1cn(C)cc1C(F)(F)F (racemic): 3.56^[a]
CCOC(=O)C(C#N)=C(NC(C)COCc1ccccc1)c1cccnc1Cl (stereo not shown): 3.71^[a]

Could you now consider this next compound?
Query string: Please look up its Log P: CCOC(=O)C(C#N)=C(NC(C)COc1ccccc1C)c1cn(C)nc1C(F)F (racemic)
Result string: 3.78^[a]

---

Conditions: pH 7.5
Label met when Log P < 3; otherwise not met.

Solved entries:
CCOC(=O)C(C#N)=C(NC(C)C1CC1)c1cccnc1Cl (mixture of isomers) [Compound 913]: met
CCOC(=O)C(C#N)=C(NC(C)c1nc(C(=O)OCC)cs1)c1cccnc1Cl (stereo not drawn): met
CC(NC(=C(C#N)C(=O)OCC(F)(F)F)c1cccnc1Cl)c1nccs1 (stereo not drawn): met
CCOC(=O)C(C#N)=C(NC(C)C=NO)c1cccnc1Cl (stereo not drawn): met
CCOC(=O)C(C#N)=C(NC(C)CCl)c1cccnc1Cl (stereo not drawn): met

Query string: Lab log: compare recorded Log P with 3; is it strictly lower for COC(=O)C(C#N)=C(NC(C(N)=O)C(C)C)c1cccnc1Cl (stereo not drawn) ?
Result string: met

Query string: Field entry: COC(=O)C(C#N)=C(NCc1ccc(Cl)nc1)c1cccnc1Cl
Result string: met

Query string: Field entry: CCOC(=O)C(C#N)=C(NC(C)C(C)C)c1ccc(Cl)nc1 (stereo not drawn)
Result string: not met

---

Settings: pH 2.7
Marks after values point to notes of the source that are not given here.
parameter: Log P

Some solved cases for reference:
CCOC(=O)C(C#N)=C(NC(Cc1ncccc1C)C(F)(F)F)c1cn(C)nc1C(F)F (centres unmarked) [Compound 1223]: 2.94^[a]
CCOC(=O)C(C#N)=C(NC(C)(C)C(=O)OC)c1sccc1Br [Compound 693]: 3.23^[a]
CCOC(=O)C(C#N)=C(NC(C)C(C)C)c1sccc1Cl (centres unmarked) [Compound 951]: 4.08^[a]
CCOC(=O)C(C#N)=C(NC(C)(C)C)c1cn(C)nc1C(F)F [Compound 1418]: 2.66^[a]

Query string: Please look up its Log P: CCOC(=O)C(C#N)=C(NC(C)C(=O)NC)c1ccsc1I (centres unmarked) [Compound 646]
Result string: 2.07^[a]

---

Conditions: pH 7.5
Assign class by Log P: not lower than 3 means Criterion met; lower than 3 means Criterion not met.

CC(C)C(C)NC(=C(C#N)C(=O)On1nnc2ccccc21)c1cccnc1Cl (centres unmarked): Criterion met
COC(=O)C(C#N)=C(NC(C)c1nccs1)c1cccnc1Br (centres unmarked): Criterion not met

Query string: Threshold query (Log P >= 3) on COC(=O)C(C#N)=C(NC(C)C(C)C)c1cccnc1Cl (centres unmarked) [Compound 931]
Result string: Criterion not met

---

Consider the following compounds; for each one, report its Log P.
Details: pH 2.7
Marks after values point to notes of the source that are not given here.

Some solved cases for reference:
CCOC1CCCC1NC(=C(C#N)C(=O)OC)c1cccnc1Cl (stereo not drawn): 2.93^[a]
COC(=O)C(C#N)=C(NCc1ccc(F)cn1)c1sc(C)nc1C(F)(F)F: 2.67^[a]
C#CC(C)(C)NC(=C(C#N)C(=O)OCC)c1conc1C: 2.66^[a]

Would you mind listing Log P for each of the following compounds?
1. CCOC(=O)C(C#N)=C(NCc1ccccn1)c1c(C)nn(C)c1Cl
2. CCOC(=O)C(C#N)=C(NC(C)C1CC=CCC1)c1cn(C)nc1C(F)F (stereo not drawn)
3. CCOC(=O)C(C#N)=C(NC(C)C(C)C)c1cn(C)nc1C(C)(F)F (racemic)
4. CCCC(NC(=C(C#N)C(=O)OCC)c1cn(C)nc1C(F)F)C(F)(F)F (stereo not drawn)
5. CCOC(=O)C(C#N)=C(NC(C)c1ccccn1)c1ccnc(CC)c1Cl (racemic)
6. CCOC(=O)C(C#N)=C(NC(C)C1=NOCCO1)c1cccnc1Cl (stereo not drawn)
7. CCOC(=O)C(C#N)=C(Nc1ccccc1SC)c1ccsc1I

Result string:
1: 2.02^[a]; 2: 3.62^[a]; 3: 3.39^[a]; 4: 3.53^[a]; 5: 2.96^[a]; 6: 2.11^[a]; 7: 3.94^[a]

Would you mind listing Log P for each of the following compounds?
1. CCOC(=O)C(C#N)=C(NC(C)c1nccs1)c1cccnc1Cl (stereo not drawn)
2. COC(=O)C(C#N)=C(NC(C)c1ccncc1)c1cccnc1Cl (stereo not drawn)
3. CCOC(=O)C(C#N)=C(NC(C)CC(=O)Nc1ccccc1C)c1cccnc1Cl (stereo not drawn)
4. CCOC(=O)C(C#N)=C(NC(C)c1nc(C)c(C)s1)c1sccc1Br (stereo not drawn)
5. CCCC(C)NC(=C(C#N)C(=O)OCC)c1ccnc(Cl)c1Cl (racemic)
6. CCOC(=O)C(C#N)=C(NC(C)c1ccccn1)c1cccnc1C(F)(F)F (racemic)

Result string:
1. 2.58
2. 1.24^[a]
3. 2.8^[a]
4. 3.8^[a]
5. 3.99^[a]
6. 2.88^[a]

Would you mind listing Log P for each of the following compounds?
1. CCC(NC(=C(C#N)C(=O)OC)c1cccnc1Cl)c1ccccc1 (stereo not drawn)
2. CCOC(=O)C(C#N)=C(NC(C)C(=O)NC)c1sccc1C(F)(F)F (stereo not drawn)

Result string:
1: 3.02^[a]; 2: 2.25^[a]
